These entries and their values trace back to ChEMBL document CHEMBL1287743.

- system: Ribonuclease pancreatic (Bos taurus)
- Sequence (P61823 whole entry): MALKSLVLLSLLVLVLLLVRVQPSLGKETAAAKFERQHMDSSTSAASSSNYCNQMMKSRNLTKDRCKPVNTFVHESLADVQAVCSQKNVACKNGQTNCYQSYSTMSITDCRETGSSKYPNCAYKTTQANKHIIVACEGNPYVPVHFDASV
readout: pKi
Please note pKi is a logarithmic value: minus log10 of concentration in mol/L. Answer with that number alone.

# input Entry Nc1ncnc2c1ncn2[C@@H]1O[C@H](C(=O)O)[C@@H](O)[C@H]1O , system Ribonuclease pancreatic (Bos taurus): what pKi was measured?
# output 4.17
